Biological target: ClpP (Staphylococcus aureus, UniProt Q2G036)
Construct: pET28a-clpP, purified from E. coli BL21(DE3)
Sequence (Q2G036 whole entry): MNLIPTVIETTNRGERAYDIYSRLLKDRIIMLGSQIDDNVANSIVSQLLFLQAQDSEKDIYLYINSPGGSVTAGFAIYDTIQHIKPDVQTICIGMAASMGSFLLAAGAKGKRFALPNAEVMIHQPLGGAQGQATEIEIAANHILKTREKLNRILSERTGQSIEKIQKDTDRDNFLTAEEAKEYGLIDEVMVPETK
Assay: biochemical
Conditions: read-out: Relative inhibition rate (%)
Parameter: inhibition at 64 µg/mL. Scope: all listed entries.
Output spec: scalar in %, unitless text.

# count of solved cases: 2
molecule=C[C@@H]1O[C@@H](OC[C@H]2O[C@@H](Oc3cc(O)c4c(=O)cc(-c5ccc(O)cc5)oc4c3)[C@H](O[C@@H]3O[C@@H](C)[C@H](O)[C@@H](O)[C@H]3O)[C@@H](O)[C@@H]2O)[C@H](O)[C@H](O)[C@H]1O reported=26.6
molecule="CC1(C)CCC2(CO)C(=C3C=CC4C5(C)CCC(OC6OC(COC7OC(CO)C(O)C(O)C7O)C(OC7OC(CO)C(O)C(O)C7O)C(O)C6O)CC5C(C)(CO)CC4(C)C3(C)CC2O)C1 (stereo not drawn) [Clinodiside A]" reported=16

Read the next record carefully.
Please provide the recorded inhibition at 64 µg/mL for `COc1cc(O)c2c(=O)cc(-c3ccc(O)cc3)oc2c1` , tested on ClpP (Staphylococcus aureus, UniProt Q2G036).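 Also: ClpP peptidase activity measured as fluorescence (ex 360 nm, em 465 nm) from cleavage of Suc-LY-AMC substrate at 100 µM, 30 min at 32°C.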
13.7
